# ASSAY_NAME: Plasma PK after IV administration
# TEST_SETTINGS: male, Ces1c−/− (JAX stock # 014096), mouse, plasma, iv, 54.4 μmole/kg
Some compounds, each annotated with its measured Cmax.
Express it in µM; write the number only.

>  <STRUCTURE_SMILES>
CCC(CC)COC(=O)[C@H](C)N[P@](=O)(OC[C@H]1O[C@@](C#N)(c2ccc3c(N)ncnn23)[C@H](O)[C@@H]1O)Oc1ccccc1

>  <Cmax / µM>
1.37

$$$$

Now consider a different compound.
I have this compound here, N#C[C@@]1(c2ccc3c(N)ncnn23)O[C@H](CO)[C@@H](O)[C@H]1O , and I need its recorded Cmax.
18.1

These measurements were taken from paper PMC11246197.
